Assay: APR_HepG2_P-H2AX_24hr: Apredica 24-hour HepG2 Assay for H2AX Phosphorylation (AID 2282920)
Settings: high-content imaging, actives raise or lower the signal
Procedure: APR_HepG2_24hr is a cell-based, multiplexed-readout assay that uses HepG2, a human liver cell line, with measurements taken at 24 hours after chemical dosing in a 384-well plate.APR_HepG2_P-H2AX_24hr is one of 10 assay component(s) measured or calculated from the APR_HepG2_24hr assay. […] This assay endpoint, APR_HepG2_P-H2AX_24hr, was analyzed with bidirectional fitting relative to DMSO as the negative control and baseline of activity. […]
Activity calls are given as the source filed them. How the source made its calls: active means hit-call score of the fitted dose curve at least 0.9, where 1 is the maximum; inactive means score below 0.9.
Tick one outcome: label 1 = active, label 0 = inactive

Use these answered entries as a reference point.
CC(=O)OCC(COC(C)=O)OC(C)=O ... label 0
O=C(O)CN(CC(=O)O)CC(=O)O ... label 0
CC(C)COC(=O)CCCCC(=O)OCC(C)C ... label 0

Next up:
// query Which outcome did this test record for the compound CC(=O)O[C@]1(C(C)=O)CC[C@H]2[C@@H]3C=C(Cl)C4=CC(=O)[C@@H]5C[C@@H]5[C@]4(C)[C@H]3CC[C@@]21C ?
// result label 0

----------
Assay: Tanguay_ZF_120hpf_PIG_legacy: (Legacy) Oregon State University Tanguay Lab 120 Hour Post-fertilization zebrafish Assay for Pigmentation Malformation (AID 2283650);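 further: dechorionated Tropical 5D zebrafish embryos exposed singly from 6 to 120 hpf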
Results filed as inconclusive are left out. Calls of active or inactive are those of the source. The calls were made as follows: active = hit-call score of the fitted dose curve at least 0.9, where 1 is the maximum; inconclusive = response in the unintended direction; inactive = score below 0.9.
A correct response names exactly one class from active, inactive

These recorded examples may help you get a feel for the data.
CCCCCCCCCC[N+](C)(C)[O-] ... inactive
CC(C)(O)c1ccc(CNC(=O)c2cccnc2Oc2ccc(F)cc2)cc1 ... inactive
COC(=O)CCC(=O)OC ... inactive

// query Test call, this compound: COc1ccc(OC(F)(F)F)cc1CN[C@H]1CCCN[C@H]1c1ccccc1
// result inactive

// query Subsequent entry: CC1(C)C(=O)NC(=O)N1CO
// result inactive

// query Now this one: O=C1NC(=O)C(c2ccccc2)(c2ccccc2)N1
// result inactive

// query // repeat for CC(C)NCC(O)c1ccc(O)c(O)c1 (stereo not given) and report
// result inactive

// query Repeat with CC(=O)OC1CC(C)OC(C)O1 (stereo not given)
// result inactive

// query Try this compound too: CC(=O)O[C@]1(C(C)=O)CC[C@H]2[C@@H]3C=C(Cl)C4=CC(=O)[C@@H]5C[C@@H]5[C@]4(C)[C@H]3CC[C@@]21C
// result inactive

// query // same read-out, input: c1ccc2occc2c1
// result inactive

----------
Assay: CEETOX_H295R_PROG: CeeTox H295R High-throughput Steroidogenesis Assay for Progesterone (PROG) (AID 2283442)
Conditions: actives raise or lower the signal
Calls of active or inactive are those of the source. Rule for the calls: active = hit-call score of the fitted dose curve at least 0.9, where 1 is the maximum; inactive = score below 0.9.
Valid outcomes are listed here; reply with one: 1 = active, 0 = inactive

Oc1ccccc1O ... 0
O=C(Oc1ccccc1)c1cccc(C(=O)Oc2ccccc2)c1 ... 0
Oc1ccc(O)cc1 ... 1
CN(C)C(=O)NC1(c2ccccc2)CCN(CCC[C@]2(c3ccc(Cl)c(Cl)c3)CCCN(C(=O)c3ccccc3)C2)CC1 ... 0
Cc1cc(Cc2ccc(N)c(C)c2)ccc1N ... 1

// query Any idea what this test logged for O=C1OC(c2ccc(O)cc2)(c2ccc(O)cc2)c2ccccc21 ?
// result 1

// query Next: Cc1c(C)c2c(c(C)c1O)CCC(C)(COc1ccc(CC3SC(=O)NC3=O)cc1)O2 (stereo not drawn)
// result 0

// query Param item: S=c1[nH]c2ccccc2s1
// result 0

----------
Read-out: UDP glucuronosyltransferase (UGT1A6), UGT1A6 (gene 54578)
Assay: LTEA_HepaRG_UGT1A6: Life Technologies and Expression Analysis (LTEA) Assay for UDP glucuronosyltransferase (UGT1A6) using HepaRG (AID 2283539)
Conditions: mRNA level, 48 h; actives raise or lower the signal
Activity calls are given as the source filed them. The calls were made as follows: active = hit-call score of the fitted dose curve at least 0.9, where 1 is the maximum; inactive = score below 0.9.
Entry note: the call must match one of active, inactive

Below, 4 compounds whose answers are already recorded.
CC(C)c1cccc(C(C)C)c1 ... inactive
CCCCOC(=O)CCCCC(=O)OCCCC ... inactive
C=CCCCCCCCCCCCC ... inactive
S=c1[nH]c2ccccc2s1 ... inactive

// query Hi, sorry to bother you, what did the test record for C/C=C/c1ccc(OC)cc1 ?
// result inactive

// query Param item: Nc1nc(=S)c2[nH]cnc2[nH]1
// result active

// query Repeat with O=Cc1ccccc1C=O
// result inactive

// query Request: CC(=O)O[C@]1(C(C)=O)CC[C@H]2[C@@H]3C=C(Cl)C4=CC(=O)[C@@H]5C[C@@H]5[C@]4(C)[C@H]3CC[C@@]21C
// result active

----------
Target: Nucleoli Translocation, AR (gene 367) (UniProt P10275)
Sequence (P10275 whole entry, looked up): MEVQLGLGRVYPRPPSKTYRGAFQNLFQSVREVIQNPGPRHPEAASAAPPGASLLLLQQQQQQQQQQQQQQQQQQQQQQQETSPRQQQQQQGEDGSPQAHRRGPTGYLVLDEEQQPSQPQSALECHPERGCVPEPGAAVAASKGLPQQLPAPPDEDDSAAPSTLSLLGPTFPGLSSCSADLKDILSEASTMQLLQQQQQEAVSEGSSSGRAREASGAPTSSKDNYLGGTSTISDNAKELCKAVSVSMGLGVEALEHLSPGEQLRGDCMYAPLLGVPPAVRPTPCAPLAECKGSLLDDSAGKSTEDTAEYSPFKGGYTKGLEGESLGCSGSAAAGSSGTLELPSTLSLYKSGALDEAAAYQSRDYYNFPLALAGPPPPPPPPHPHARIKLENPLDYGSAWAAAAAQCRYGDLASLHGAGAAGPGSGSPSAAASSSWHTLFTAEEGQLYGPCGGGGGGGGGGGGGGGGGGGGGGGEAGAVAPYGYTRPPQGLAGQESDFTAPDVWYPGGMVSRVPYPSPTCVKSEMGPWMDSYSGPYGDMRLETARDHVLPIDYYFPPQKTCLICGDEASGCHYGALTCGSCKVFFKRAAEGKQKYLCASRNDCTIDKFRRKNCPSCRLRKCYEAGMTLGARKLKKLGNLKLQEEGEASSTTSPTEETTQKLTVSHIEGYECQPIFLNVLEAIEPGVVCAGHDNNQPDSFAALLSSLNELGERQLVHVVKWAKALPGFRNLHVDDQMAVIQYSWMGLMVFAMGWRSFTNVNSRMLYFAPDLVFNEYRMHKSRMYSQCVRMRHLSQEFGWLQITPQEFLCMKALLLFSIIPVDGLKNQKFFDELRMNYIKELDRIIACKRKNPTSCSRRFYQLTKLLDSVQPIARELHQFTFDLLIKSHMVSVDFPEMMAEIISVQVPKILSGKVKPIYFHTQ
Experiment: UPITT_HCI_U2OS_AR_TIF2_Nucleoli_Antagonist: University of Pittsburgh U2OS Androgen Receptor-Transcriptional Intermediary Factor 2 (AR-TIF2) Antagonism High Content Imaging Assay for Nucleoli Translocation (AID 2283997)
Results filed as inconclusive are left out. Activity calls are given as the source filed them. How the source made its calls: active means hit-call score of the fitted dose curve at least 0.9, where 1 is the maximum; inconclusive means response in the unintended direction; inactive means score below 0.9.
parameter.measured: AC50

O=C1OC(c2ccc(O)cc2)(c2ccc(O)cc2)c2ccccc21 ... 86.2 µM (active)
CCN(CC)CCOc1ccc(C(=C(Cl)c2ccccc2)c2ccccc2)cc1 ... inactive
O=C(Oc1ccccc1)c1cccc(C(=O)Oc2ccccc2)c1 ... inactive
Cc1cc(SC2=C(O)C[C@@](CCc3ccc(N)cc3)(C(C)C)OC2=O)c(C(C)(C)C)cc1CO ... inactive
O=C1CCCCC1 ... inactive

Next item in the queue.
// query AC50 value for entry CCCCCCCCCC[N+](C)(C)[O-]
// result inactive

----------
Read-out: Cytochrome P450 4A22 (Homo sapiens)
Test: LTEA_HepaRG_CYP4A22: Life Technologies and Expression Analysis (LTEA) Assay for Cytochrome P450 4A22 (CYP4A22) using HepaRG (AID 2283495)
Conditions: mRNA level, 48 h; actives raise or lower the signal
Protocol: LTEA_HepaRG is a cell based, multiplexed-readout assay that uses HepaRG, a human liver cell line, with measurements taken at 48 hours after chemical dosing on a 96-well plate.LTEA_HepaRG_CYP4A22 is one of 102 assay component(s) measured in the LTEA HepaRG cell culture assay. It is a marker of NR mediated metabolism.Data from the assay component LTEA_HepaRG_CYP4A22 was analyzed into 1 endpoint. […]
Activity calls are given as the source filed them. How the source made its calls: active means hit-call score of the fitted dose curve at least 0.9, where 1 is the maximum; inactive means score below 0.9.
Choose the fitting class; nothing outside active, inactive is accepted.

// query Dear all, I need the recorded test outcome for c1ccc2occc2c1 , thank you.
// result inactive

----------
Read-out: Transforming Growth Factor (TGFA), TGFA (gene 7039)
Assay: LTEA_HepaRG_TGFA: Life Technologies and Expression Analysis (LTEA) Assay for Transforming Growth Factor (TGFA) using HepaRG (AID 2283532)
Details: mRNA level, 48 h; actives raise or lower the signal
The source made the active and inactive calls. The calls were made as follows: active = hit-call score of the fitted dose curve at least 0.9, where 1 is the maximum; inactive = score below 0.9.
I would appreciate it if you answered using one of these outcomes: active, inactive

CC(=O)OCC(COC(C)=O)OC(C)=O ... inactive
O=C(NS(=O)(=O)/C=C/c1cccs1)c1ccc(F)cc1Br ... inactive
CCCCC(CC)COC(=O)CCCCCCCC(=O)OCC(CC)CCCC (stereo unspecified) ... inactive

Next up:
// query Each compound tested received a call. Report the one for C=CCc1ccc(OC)c(OC)c1 .
// result active

----------
Read-out: Interleukin-8 (IL8), CXCL8 (gene 3576)
Test: BSK_SAg_IL8: BioMAP Diversity Plus: SAg Assay for Interleukin-8 (IL8) Biomarker Activity (AID 2283094)
Details: primary human HUVEC with PBMC; actives raise or lower the signal
Activity calls are given as the source filed them. Rule for the calls: active = hit-call score of the fitted dose curve at least 0.9, where 1 is the maximum; inactive = score below 0.9.
Field 'call' accepts active, inactive

Use these answered entries as a reference point.
CCCCOC(=O)CCCCC(=O)OCCCC ... inactive
CN(C)CCCN(C)CCCN(C)C ... inactive
NC=O ... inactive

// query Assay result, entry N[C@@H](Cc1c[nH]c2ccccc12)C(=O)O — outcome?
// result inactive

// query Item: CCCCc1nc2cccnc2n1Cc1ccc(-c2ccccc2-c2nnn[nH]2)cc1
// result inactive

// query Subsequent entry: CS(=O)(=O)c1ccc([C@@H](C[C@H]2CCC(=O)C2)C(=O)Nc2cnccn2)cc1Cl
// result inactive

// query Field entry: CC1=C(C)S(=O)(=O)CCS1(=O)=O
// result inactive

// query // query: CCOCCOCCO
// result inactive

// query What would you report for CCCCCCC(CCCCCCCCCCC(=O)OCC(COC(C)=O)OC(C)=O)OC(C)=O (stereo not drawn) ?
// result inactive

// query And CCCCCCCCCC[N+](C)(C)[O-] ?
// result inactive

// query Then COc1ccc(OC(F)(F)F)cc1CN[C@H]1CCCN[C@H]1c1ccccc1 ?
// result active

// query How about this molecule: COC(=O)CCC(=O)OC
// result inactive

// query Query CCCCCCC(C=O)=Cc1ccccc1 next
// result active
